Where do the numbers come from? From patent US9012497B2.

Test system: 3T3 cells
TEST_SUMMARY: ATP assay, inhibition of proliferation
Format: cell-based
STUDY_CONDITIONS: Mus musculus, NIH3T3, 48 h, non-cytotoxic dilutions, mean values of at least 2 independent tests
pIC50: −log10 of the molar value.

COMPOUND | pIC50
CCCCNC(=O)OC1C(C)CCC(C)C1C (stereo not drawn) [BIO1617] | 3.61
CCC(C)NC(=O)OC1CC(C)CC(C)(C)C1 (stereo not drawn) [BIO1844] | 3.32
CCCCNC(=O)OC1CCCCC1C(C)C (stereo not drawn) [BIO1841] | 3.59
CCC(C)NC(=O)OC1CCCC(C)C1C (stereo not drawn) [BIO1845] | 3.46
CCc1ccc(NC(=O)OC2CC(C)CC(C)C2)cc1 (stereo not drawn) [BIO1823] | 2.86
CCCCNC(=O)OC1CC(C)CC(C)(C)C1 (stereo not drawn) [BIO1616] | 3.66

###

STUDY_SYSTEM: lipoprotein lipase (LPL) (Mus musculus, UniProt P11152)
Construct: endogenous in cells; heparin-released supernatant
Sequence (P11152 28-474): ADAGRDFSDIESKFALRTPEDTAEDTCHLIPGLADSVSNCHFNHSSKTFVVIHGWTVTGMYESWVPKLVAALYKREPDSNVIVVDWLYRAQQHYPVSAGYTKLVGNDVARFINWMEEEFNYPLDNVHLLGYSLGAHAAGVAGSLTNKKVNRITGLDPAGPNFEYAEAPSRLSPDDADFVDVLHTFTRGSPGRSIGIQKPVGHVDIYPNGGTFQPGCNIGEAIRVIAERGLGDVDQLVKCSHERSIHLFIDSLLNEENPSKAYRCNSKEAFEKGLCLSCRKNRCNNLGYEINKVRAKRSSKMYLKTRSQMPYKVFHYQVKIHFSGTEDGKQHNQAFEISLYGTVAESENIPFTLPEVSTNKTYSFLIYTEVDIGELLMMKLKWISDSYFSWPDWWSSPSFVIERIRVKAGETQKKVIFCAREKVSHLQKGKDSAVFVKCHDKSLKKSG
TEST_SUMMARY: Inhibition of LPL (lipogenesis assay), MUF oleate hydrolysis
STUDY_CONDITIONS: LPL obtained from differentiated 3T3-L1 cells; mean values of at least 2 independent tests
Experimental: Lipogenesis is perceived as the storage of triglycerides in adipocytes. […] The LPL thus obtained, in the presence of test substances in different use concentrations, has methylumbelliferyl oleate (MUF oleate) added as the substrate. Fluorescent methylumbelliferyl (MUF) is produced by hydrolysis of the MUF oleate by LPL and is quantified. […] The IC50 is calculated from the inhibition of the LPL [%] in a series of dilutions of tested samples. […]
Recorded IC50 by entry

COMPOUND | IC50
CCCCCCNC(=O)OC1CC(C)CC(C)(C)C1 (stereo not shown) [BIO1850] | 680 µM
CCCCNC(=O)OC1C(C)CCC(C)C1C (stereo not shown) [BIO1617] | 610 µM
C=C(C)C1CCC(C)CC1OC(=O)NCCCC (stereo not shown) [BIO1615] | 870 µM
CCC(C)NC(=O)OC1CCCC(C)C1C (stereo not shown) [BIO1845] | 1440 µM
CCC(C)NC(=O)OC1CC(C)CC(C)(C)C1 (stereo not shown) [BIO1844] | 720 µM
CCCCNC(=O)OC1CC(C)CC(C)(C)C1 (stereo not shown) [BIO1616] | 1020 µM
CCCCNC(=O)OC1CCCCC1C(C)C (stereo not shown) [BIO1841] | 1200 µM

###

So I've got pIC50 readings for pancreatic lipase (PL) (Sus scrofa, UniProt P00591), take a look.
pIC50: −log10 of the molar value.

MOLECULE | pIC50
CCCCNC(=O)OC1C(C)CCC(C)C1C (stereo not shown) [BIO1617] | 2.86
CC1CCCC(OC(=O)Nc2ccccc2O)C1C (stereo not shown) [BIO1643] | 3.38
CCNC(=O)OC1CC(C)CC(C)C1 (mixture of isomers) [BIO1561] | 3.40
COc1ccccc1NC(=O)OC1CC(C)CC(C)(C)C1 (stereo not shown) [BIO1703] | 2.73
CCCCCCNC(=O)OC1CCCCC1C(C)C (stereo not shown) [BIO1851] | 2.91
CC(C)C1CCCCC1OC(=O)NCc1ccccc1 (stereo not shown) [BIO1748] | 2.66
CCNC(=O)OC1CCC(C(C)C)C(C)C1 (stereo not shown) [BIO1560] | 3.25

###

System: ex vivo pig skin model including subcutis fat layer
TEST_SUMMARY: Lipolysis assay, ex vivo pig skin model, free glycerol release
Assay type: cell-based
STUDY_CONDITIONS: conc. 0.1% in cosmetic test preparation, topical on ex vivo pig skin, 24 hours, versus placebo
Stimulation of lipolysis values, listed per item

COMPOUND | Stimulation of lipolysis
CCCCNC(=O)OC1CCCCC1C(C)C (stereo not shown) [BIO1841] | 25%
CCc1ccc(NC(=O)OC2CC(C)CC(C)C2)cc1 (stereo not shown) [BIO1823] | 28%
CCCCNC(=O)OC1C(C)CCC(C)C1C (stereo not shown) [BIO1617] | 21%
CCC(C)NC(=O)OC1CCCC(C)C1C (stereo not shown) [BIO1845] | 29%
